# assayProcedure: Tolerance in the marmoset, oral
# recordedConditions: in vivo, read-out: oral doses tolerated (up to)
assayEndpoint: MTD

Lab book: MTD of `Cc1c(-c2ccccc2)c(SCC(C)(C)N(C)C)nc2ccccc12.O=C(O)/C=C/C(=O)O.O=C(O)/C=C/C(=O)O` noted as ≥ 60 mg/kg
